experiment: Human pharmacokinetics (Phase 1); settings: plasma, po
Where a name gives a salt, the structure may show the parent alone.
assayEndpoint: Tmax

Fill in the blank: the reported Tmax of Cc1nc2c([nH]1)-c1ccccc1N(C(=O)c1ccc(NC(=O)c3ccccc3-c3ccccc3)cc1)CC2 [YM087, hydrochloride] is ____.
~1 h

---

assay: Human pharmacokinetics (Phase 1); settings: plasma, oral
Counter-ions that a name gives are not always drawn.
assayEndpoint: bioavailability

Fill in the blank: the reported bioavailability of Cc1nc2c([nH]1)-c1ccccc1N(C(=O)c1ccc(NC(=O)c3ccccc3-c3ccccc3)cc1)CC2 [YM087, hydrochloride] is ____.
43 to 59%
